target: UGT1A4 (Homo sapiens)
Sequence (P22310 29-534): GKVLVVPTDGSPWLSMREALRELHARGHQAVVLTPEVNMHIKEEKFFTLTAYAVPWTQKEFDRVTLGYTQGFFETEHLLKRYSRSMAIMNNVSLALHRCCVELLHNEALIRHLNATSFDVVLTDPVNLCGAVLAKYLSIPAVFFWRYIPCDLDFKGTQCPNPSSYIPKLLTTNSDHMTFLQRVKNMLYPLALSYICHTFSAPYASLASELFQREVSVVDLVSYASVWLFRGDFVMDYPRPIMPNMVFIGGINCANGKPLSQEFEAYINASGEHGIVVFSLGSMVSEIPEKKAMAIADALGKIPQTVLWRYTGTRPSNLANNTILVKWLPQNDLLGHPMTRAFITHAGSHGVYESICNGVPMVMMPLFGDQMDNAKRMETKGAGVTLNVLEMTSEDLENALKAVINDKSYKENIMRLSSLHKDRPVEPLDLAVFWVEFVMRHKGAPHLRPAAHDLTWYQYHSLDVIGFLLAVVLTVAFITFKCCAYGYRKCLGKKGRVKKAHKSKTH
endpoint.label: IC50

Give IC50; test system UGT1A4 (Homo sapiens); compound Cc1cccc(C(C)c2cnc[nH]2)c1C (stereo in doubt)
> 1000 µM

====

assay: in vitro; details: human, human liver microsomes
endpoint.label: Km (µM)
Provide only the numeric value, understood in µM.

Tell me its Km given CN1CCCC1c1cccnc1 (stereo not shown) as the entry.
330
